meta.source: paper PMC9410537

# System: L-6 cells (rat skeletal myoblasts)
# TEST_NAME: In vitro cytotoxicity assay with L-6 cells (resazurin)
# Assay type: cell-based
# CONDITION_DETAILS: L6, L-6 cells, 70 h incubation, read-out: IC50 L6
pIC50: −log10 of the molar value.
MEASUREMENT_LABEL: pIC50

> print(dat)
                              sample.smiles  measurement.label  quantitative.readout
1  CC1=C[C@@H](/C=C(\C)CCCc2ccoc2)[C@]2(OC(=O)C(C)=C2O)[C@@H]2[C@@H](C)CC[C@@H]12              pIC50                  3.82

====

# Test system: P. falciparum NF54 strain
# TEST_NAME: In vitro activity against erythrocytic stages of P. falciparum (3H-hypoxanthine incorporation assay)
# Type: cell-based
# CONDITION_DETAILS: Plasmodium falciparum, Table 2 values are means of two independent assays
# Experimental: Activity against P. falciparum. In vitro activity against erythrocytic stages of P. falciparum was determined using a ^3H-hypoxanthine incorporation assay against the drug-sensitive NF54 strain [76]. […] The dried filters were inserted into a plastic foil with 10 mL of scintillation fluid and counted in a Betaplate™ liquid scintillation counter (Wallac, Zurich, Switzerland). IC50 values were calculated from sigmoidal inhibition curves by linear regression using Microsoft Excel. […]
MEASUREMENT_LABEL: IC50

> print(dat)
                                   molecule  measurement.label    result
1  CCN(CC)CCCC(C)Nc1ccnc2cc(Cl)ccc12 (centres unmarked) [chloroquine, Chloroquine diphosphate, reference compound]               IC50  0.006 µM
2  CC1=C[C@@H](/C=C(\C)CCCc2ccoc2)[C@]2(OC(=O)C(C)=C2O)[C@@H]2[C@@H](C)CC[C@@H]12               IC50   25.4 µM
